experimental-target: KRas G12D/Q61H double mutant (Homo sapiens (Human), UniProt P01116, G12D/Q61H)
Sequence (P01116-2 other isoform, or with tags, fused parts or gaps G12D/Q61H): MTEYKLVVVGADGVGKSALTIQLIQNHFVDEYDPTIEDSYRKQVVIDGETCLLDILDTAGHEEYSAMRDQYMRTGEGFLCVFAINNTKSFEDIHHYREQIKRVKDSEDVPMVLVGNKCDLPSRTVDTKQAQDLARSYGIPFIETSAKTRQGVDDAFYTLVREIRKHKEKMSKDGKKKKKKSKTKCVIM
assay-explanation: Ras GTP binding domain inhibition assay (labeled GTP)
experimental-context: 20 μM compound; read-out: % Inhibition at 20 μM KRas G12D Q61H
Parameter inhibition at 20 µM: see the listing below.

These solved cases illustrate the format of a correct answer.
O=C(CCc1cncnc1)Nc1nc(-c2ccccn2)nc2sccc12 [drawing 2891]; 51 to 75%
NC(=O)Cn1cnc2nc(-c3ccccn3)nc(N3CCOCC3)c21 [drawing 2825]; 1 to 25%
CCc1ccc(-c2nc(C)c(C(=O)N(Cc3ccco3)C3CCS(=O)(=O)C3)s2)cc1 (centres unmarked); 25 to 50%
CC(C)(O)c1ccc(-c2csc3c(O)nc(-c4ccccn4)nc23)c(F)c1 [drawing 2880]; 51 to 75%

--- query ---
Bench note: what inhibition at 20 µM did COCCN(c1nc2ccccc2s1)S(=O)(=O)c1ccccc1 show?
25 to 50%
